Every entry's value here was drawn from the kinase profiling compilation of Christmann-Franck et al. (2016).

- experimental target: UniProtKB P53778
- Sequence (P53778 whole entry, looked up): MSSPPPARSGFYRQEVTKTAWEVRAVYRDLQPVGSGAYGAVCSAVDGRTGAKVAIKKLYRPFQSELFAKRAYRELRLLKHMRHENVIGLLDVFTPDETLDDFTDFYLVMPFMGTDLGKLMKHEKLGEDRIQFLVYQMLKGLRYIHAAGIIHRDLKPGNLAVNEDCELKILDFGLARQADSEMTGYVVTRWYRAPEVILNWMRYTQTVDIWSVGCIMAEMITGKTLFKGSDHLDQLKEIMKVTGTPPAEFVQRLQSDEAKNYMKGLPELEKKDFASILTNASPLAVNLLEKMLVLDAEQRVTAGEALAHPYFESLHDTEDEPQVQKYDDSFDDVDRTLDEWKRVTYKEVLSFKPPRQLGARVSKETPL
- assay procedure: KINOMEscan competition binding
- assay setup: compound 10.0 µM
measured parameter: kinase still bound, per cent of control (%)
Give bare numbers, in %.

In [3]: df
Out[3]:
                              smiles_record  units_of_measure  reported_measurement
0         COc1cc2ncnc(Nc3cccc(Cl)c3)c2cc1OC                 %                   100
1  CCN1CCN(Cc2ccc(NC(=O)c3ccc(C)c(/C=C/c4cnc5[nH]ccc5c4OC)c3)cc2C(F)(F)F)CC1                 %                    40
2  COc1cc(N2CCC(C(N)=O)CC2)ccc1Nc1nc(N)c(Cl)c(Nc2ccccc2S(=O)(=O)C(C)C)n1                 %                   100
3  COc1cc2c(Nc3ccc(NC(=O)c4ccccc4)cc3)ncnc2cc1OCCCN1CCOCC1                 %                    49
4  N#Cc1cc(-c2ccnc(Nc3ccc(-n4cnc(-c5cccnc5)n4)cc3)n2)cc(N2CCOCC2)c1                 %                    80
5  CNC(=O)Nc1ccc(-c2nc(N3CC4CCC(C3)O4)c3cnn(C4CCC5(CC4)OCCO5)c3n2)cc1                 %                    54

// batch mode: one kinase still bound, per cent of control value per listed entry
1. Cc1cn(-c2cc(C(=O)Nc3ccc(C)c(NC(=O)c4ccno4)c3)cc(C(F)(F)F)c2)cn1
2. CC(=O)c1c(C)c2cnc(Nc3ccc(N4CCNCC4)cn3)nc2n(C2CCCC2)c1=O
3. CCCS(=O)(=O)Nc1ccc(F)c(C(=O)c2c[nH]c3ncc(Cl)cc23)c1F

1. 100
2. 59
3. 100
